Catalogue of N2 permeability values
Write it as a number; the unit Barrer goes unstated.

Field: example entries. Status: answers known.
{"molecule": "*c1c(C)cc(Cc2cc(C)c(N3C(=O)c4ccc(-c5ccc6c(c5)C(=O)N(*)C6=O)cc4C3=O)c(C)c2)cc1C (repeat unit)", "reported": 0.913}
{"molecule": "*c1ccc(Oc2ccc(C(c3ccc(Oc4ccc(N5C(=O)c6ccc(C(c7ccc8c(c7)C(=O)N(*)C8=O)(C(F)(F)F)C(F)(F)F)cc6C5=O)cc4)cc3)(C(F)(F)F)C(F)(F)F)cc2)cc1 (repeat unit)", "reported": 0.982}
{"molecule": "*c1ccc(Oc2ccc(-c3cccc(-c4ccc(Oc5ccc(N6C(=O)c7ccc(C(c8ccc9c(c8)C(=O)N(*)C9=O)(C(F)(F)F)C(F)(F)F)cc7C6=O)cc5)c(C(F)(F)F)c4)n3)cc2C(F)(F)F)cc1 (repeat unit)", "reported": 1.91}
{"molecule": "*c1ccc2c(c1C)N1Cc3ccc(N4C(=O)c5ccc(C(c6ccc7c(c6)C(=O)N(*)C7=O)(C(F)(F)F)C(F)(F)F)cc5C4=O)c(C)c3N(C2)C1 (repeat unit)", "reported": 10}
{"molecule": "*CC(*)(Cl)Cl (repeat unit)", "reported": 0.000939}

Prompt line: Need N2 permeability of *CC(C)O* (repeat unit) , thanks.
Response line: 11

Prompt line: Need N2 permeability of *c1ccc(C)c(-c2cc(C)c(-c3cc(*)ccc3C)cc2C)c1 (repeat unit) , thanks.
Response line: 2.4

---

CH4 permeability below 4 Barrer gives Condition not met; CH4 permeability at or above it gives Condition met.

{"compound": "*Oc1cc2c(cc1O*)C1(CC2(C)C)CC(C)(C)c2cc3oc4cc5c(=O)n(-c6c(C)c(C)c(N7C(=O)c8cc(*)c(*)cc8C7=O)c(C)c6C)c(=O)c5cc4oc3cc21 (repeat unit)", "discrete label": "Condition met"}
{"compound": "*C(=C(*)c1ccc(-c2ccc(C(C)(C)C)cc2)cc1)c1ccccc1 (repeat unit)", "discrete label": "Condition met"}
{"compound": "*C(C)=C(*)CCC (repeat unit)", "discrete label": "Condition met"}
{"compound": "*c1ccc(Oc2ccc(C(c3ccc(Oc4ccc(N5C(=O)c6ccc(C(c7ccc8c(c7)C(=O)N(*)C8=O)(C(F)(F)F)C(F)(F)F)cc6C5=O)cc4C(F)(F)F)cc3)(C(F)(F)F)C(F)(F)F)cc2)c(C(F)(F)F)c1 (repeat unit)", "discrete label": "Condition not met"}

Prompt line: Is the recorded value of CH4 permeability equal to or greater than 4 Barrer for this compound? *Oc1ccc2c(c1)C1(CC2(C)C)CC(C)(C)c2ccc(OC(=O)c3ccc(C(*)=O)cc3)cc21 (repeat unit)
Response line: Condition met

Prompt line: Is the recorded value of CH4 permeability equal to or greater than 4 Barrer for this compound? *C(=C(*)c1ccc(C[Si](C)(C)C)cc1)c1ccccc1 (repeat unit)
Response line: Condition met

Prompt line: Is the recorded value of CH4 permeability equal to or greater than 4 Barrer for this compound? *c1cccc(-c2nc3cc(-c4ccc5[nH]c(*)nc5c4)ccc3[nH]2)c1 (repeat unit)
Response line: Condition not met

---

value kind: CH4 permeability (Barrer)
Write it as a number; the unit Barrer goes unstated.

Field: example entries. Status: answers known.
{"molecule": "*c1ccc(N2C(=O)c3ccc([Si](C)(C)c4ccc5c(c4)C(=O)N(*)C5=O)cc3C2=O)cc1 (repeat unit)", "measurement units": "Barrer", "CH4 permeability": 0.064}
{"molecule": "*c1ccc(C)c(-c2cc(C)c(-c3cc(*)ccc3C)cc2C)c1 (repeat unit)", "measurement units": "Barrer", "CH4 permeability": 1.9}
{"molecule": "*c1c(C)cc2c(c1C)C1c3ccccc3C2c2cc(C)c(N3C(=O)c4ccc5c6c(ccc(c46)C3=O)C(=O)N(*)C5=O)c(C)c21 (repeat unit)", "measurement units": "Barrer", "CH4 permeability": 122}

API: the following record is the query input.
Prompt line: Need CH4 permeability of *c1ccc(Oc2ccc(C(C)(C)c3ccc(Oc4ccc(N5C(=O)c6ccc(-c7ccc8c(c7)C(=O)N(*)C8=O)cc6C5=O)cc4)cc3)cc2)cc1 (repeat unit) , thanks.
Response line: 0.0846

---

Catalogue of N2 permeability values
Write it as a number; the unit Barrer goes unstated.

Field: example entries. Status: answers known.
{"compound": "*CCC(F)(Cl)C(*)(F)F (repeat unit)", "N2 permeability, Barrer": 0.061}
{"compound": "*c1ccc(-c2ccc(Oc3ccc4c(c3)C3(CC4(C)C)CC(C)(C)c4ccc(Oc5ccc(-c6ccc(N7C(=O)c8ccc(Oc9ccc(C(C)(C)c%10ccc(Oc%11ccc%12c(c%11)C(=O)N(*)C%12=O)cc%10)cc9)cc8C7=O)cc6)cc5C(F)(F)F)cc43)c(C(F)(F)F)c2)cc1 (repeat unit)", "N2 permeability, Barrer": 1.02}
{"compound": "*c1ccc(Oc2ccc(N3C(=O)c4ccc(Sc5ccc6c(c5)C(=O)N(*)C6=O)cc4C3=O)cc2)cc1 (repeat unit)", "N2 permeability, Barrer": 0.021}
{"compound": "*c1c(C)cc(-c2cc(C)c(N3C(=O)c4ccc(C(=O)Oc5ccc(C(c6ccc(OC(=O)c7ccc8c(c7)C(=O)N(*)C8=O)cc6)(C(F)(F)F)C(F)(F)F)cc5)cc4C3=O)c(C)c2)cc1C (repeat unit)", "N2 permeability, Barrer": 0.549}

Prompt line: Need N2 permeability of *c1cccc(-c2nnc(*)n2-c2ccccc2)c1 (repeat unit) , thanks.
Response line: 0.09

Prompt line: Need N2 permeability of *CC(*)c1ccc(C([Si](C)(C)C)[Si](C)(C)C)cc1 (repeat unit) , thanks.
Response line: 10.1

Prompt line: Need N2 permeability of *C[Si](*)(C)C (repeat unit) , thanks.
Response line: 38

Prompt line: Need N2 permeability of *c1ccc(Oc2ccc(S(=O)(=O)c3ccc(Oc4ccc(S(*)(=O)=O)cc4)cc3)cc2)cc1 (repeat unit) , thanks.
Response line: 0.13

Prompt line: Need N2 permeability of *CC(C)C(=O)OCCOC(=O)C(C)C* (repeat unit) , thanks.
Response line: 1.6

Prompt line: Need N2 permeability of *Oc1ccc(S(=O)(=O)c2ccc(Oc3ccc(Cc4ccc(*)cc4)cc3)cc2)cc1 (repeat unit) , thanks.
Response line: 0.2

Prompt line: Need N2 permeability of *c1cccc(-c2cc(C)c(-c3cccc(*)c3C)cc2C)c1C (repeat unit) , thanks.
Response line: 7.3

Prompt line: Need N2 permeability of *C(=C(*)c1ccc([Si](C)(C)CCCCCCCC)cc1)c1ccc(C(C)(C)C)cc1 (repeat unit) , thanks.
Response line: 7.5

Prompt line: Need N2 permeability of *OC1OC(COC(=O)NC(C)(C)C)C(*)C(OC(C)=O)C1OC(C)=O (repeat unit) , thanks.
Response line: 0.98

Prompt line: Need N2 permeability of *Oc1ccc(C(C)(C)c2ccc(Oc3ccc(S(=O)(=O)c4ccc(*)cc4)cc3)cc2)cc1 (repeat unit) , thanks.
Response line: 0.25

Prompt line: Need N2 permeability of *Oc1c(C)cc(C(C)(C)c2cc(C)c(OC(=O)c3cccc(C(*)=O)c3)c(C)c2)cc1C (repeat unit) , thanks.
Response line: 0.579

Prompt line: Need N2 permeability of *C(=C(*)c1ccc2c(c1)C1(CC1)c1ccccc1-2)c1ccccc1 (repeat unit) , thanks.
Response line: 400

---

value kind: CH4 permeability
I'd appreciate it if you wrote the number followed by its unit.

Field: example entries. Status: answers known.
{"compound": "*C/C(C)=C(\\C)C* (repeat unit)", "CH4 permeability": "0.786 Barrer"}
{"compound": "*/C(C)=C(/*)[Si](C)(C)CC (repeat unit)", "CH4 permeability": "1200 Barrer"}
{"compound": "*c1c(C)cc(-c2cc(C)c(N3C(=O)c4cc5c(cc4C3=O)C3(C)c4ccccc4C5(C)c4cc5c(cc43)C(=O)N(*)C5=O)c3ccccc23)c2ccccc12 (repeat unit)", "CH4 permeability": "187 Barrer"}
{"compound": "*Oc1ccc(-c2c(-c3ccc(C#N)cc3)c(-c3ccc(C#N)cc3)c(-c3ccc4c(c3)Oc3c(C#N)c(*)c(*)c(C#N)c3O4)c(-c3ccc(C#N)cc3)c2-c2ccc(C#N)cc2)cc1O* (repeat unit)", "CH4 permeability": "93 Barrer"}
{"compound": "*Oc1c(C)cc(C(c2cc(C)c(Oc3ccc(S(=O)(=O)c4ccc(*)cc4)cc3)c(C)c2)(C(F)(F)F)C(F)(F)F)cc1C (repeat unit)", "CH4 permeability": "3 Barrer"}

Prompt line: Need CH4 permeability of *Oc1ccc(C(C)(C)c2ccc(OC(=O)c3cc(C(*)=O)cc(C(C)(C)C)c3)c(C(C)C)c2)cc1C(C)C (repeat unit) , thanks.
Response line: 1.43 Barrer

Prompt line: Need CH4 permeability of *c1ccc(Cc2ccc(N3C(=O)c4ccc(C(c5ccc6c(c5)C(=O)N(*)C6=O)(C(F)(F)F)C(F)(F)F)cc4C3=O)cc2)cc1 (repeat unit) , thanks.
Response line: 0.344 Barrer
